Could you please report measured melting point for the items listed next?

Ask | Any idea what its melting point is? The molecule is CC#CC(=O)N[C@H]1CC[C@H](CCN2CCN(c3nccc4c3CCO4)CC2)CC1
Reply | 193 °C

Ask | Requested read-out: melting point. Entry: Cn1cnc(COc2nn3c(-c4ccccc4)nnc3cc2-c2ccc(Cl)s2)n1
Reply | 248 to 250 °C

Ask | Which value of melting point has been reported for COc1cc(CN2CCC(=C3c4ccccc4CCn4ccnc43)CC2)cc(OC)c1OCc1ccc2ccccc2n1 in the records?
Reply | 215 °C

Ask | Endpoint output: melting point of O=C(CN1C2=NCCN2c2ccccc21)c1ccccc1 . Value?
Reply | 178 to 179 °C

Ask | Recorded melting point for O=C(NC1CCCC1)c1ccc(CCN2CC=C(c3c[nH]c(-c4ccc(F)cc4)c3-c3ccncc3)CC2)cc1 , please?
Reply | 192 to 195 °C

Ask | Look up melting point: O=C(O)c1ccc(OCCNC(=O)C2Cc3ccccc3N2S(=O)(=O)c2ccc(-c3ccc(F)cc3Cl)cc2)nc1 (centres undefined)
Reply | 88 to 98 °C

Ask | # get_value(readout='melting point', item= CCCn1c(=O)[nH]c2c(C)ccc(OCC(O)CN3CCC(COc4ccccc4)CC3)c21 (centres undefined) )
Reply | 91 to 93 °C

Ask | Look up melting point for this molecule: CCOC(=O)c1cc2cc(NC(=O)OC(C)(C)C)ccc2[nH]1
Reply | 190 to 192 °C

Ask | Could you tell me which melting point is on file for CCOC(=O)/C=C/c1ccc(O)c(Cl)c1 ?
Reply | 104 to 106 °C

Ask | What does the record list as melting point for N#Cc1cc(CO)nc(C(=O)Nc2ccc(F)cn2)c1 ?
Reply | 232 °C

Ask | Can you look up the measured melting point of C1CN(c2nc(NC3CC3)nc(C3CC3)n2)CCS1 for me?
Reply | 133 to 134 °C

Ask | # lookup: melting point of CCn1cc2c(n1)c(Cl)nc1cc(OCc3ccccc3)ccc12
Reply | 155 to 157 °C

Ask | For COC(=O)Cc1c(-c2ccc3c(c2)OCO3)c2ccccc2n(Cc2ccccc2OC)c1=O , what is its reported melting point?
Reply | 71 to 72 °C

Ask | # query: melting point of entry COc1ccc(NC(=O)c2ccc(Cl)c(Cl)c2)cc1NCc1cccs1
Reply | 185 to 188 °C

Ask | Report melting point for CCNC(=O)[C@H]1N(C(=O)[C@@H](OC(C)=O)[C@H](Cc2ccccc2)NC(=O)c2cc(C)cc(OC(C)=O)c2C)CC(F)(F)C1(C)C please.
Reply | 88 to 93 °C

Ask | Quick one: melting point of CC(C)(C)C(=O)Nc1n[nH]c(C(C)(C)C)c1Cl ?
Reply | 156 to 158 °C

Ask | Field request: melting point | item: CCCCCCCCCCCCSc1nnn(C(C(=O)O)c2ccccc2)n1 (centres undefined)
Reply | 64 to 67 °C

Ask | Using the record for CC12CCC(Oc3c(F)c(F)c(C(F)(F)F)c(F)c3F)=CC1=CCC1C2CCC2(C)C(OS(=O)(=O)C(F)(F)F)=CCC12 (centres undefined) , report its melting point.
Reply | 106 to 107 °C

Ask | Would you mind telling me what melting point value was observed for Oc1nc2ccc3ncsc3c2nc1O ?
Reply | > 360 °C

Ask | # lookup: melting point of CCCCOc1c(CO)n(CC(C)(C)C)c(=O)c2ccc(F)cc12
Reply | 143 to 144 °C

Ask | # query: melting point of entry CN1C(=O)CC[C@]2(C)c3ccc(-c4ccc5ncccc5c4)cc3CC[C@@H]12
Reply | 185 to 190 °C

Ask | Which melting point value is on record for COC1(c2cc(F)cc(OCc3ccc(-n4ccnc4C)cc3)c2)CCOCC1 ?
Reply | 168 °C

Ask | Requested read-out: melting point. Entry: CCCCCCNC(=S)NN=C(CCCCl)c1ccccc1
Reply | 42 to 44 °C

Ask | Which value of melting point has been reported for C#CCOc1ccc2c(C(=O)OCC)cc(=O)oc2c1 in the records?
Reply | 230 °C

Ask | Please look up its melting point: NC(=O)N1C(=O)C(C(=O)c2cccs2)c2cnccc21 (centres undefined)
Reply | 250 °C

Ask | May I ask what melting point has been recorded for CC(C)(C)c1cc(C=O)ccc1O ?
Reply | 142 °C

Ask | // query melting point value for entry Cc1oc(-c2ccco2)nc1COc1ccc(COc2nn(Cc3ccc(OCc4nc(-c5ccco5)oc4C)cc3)cc2C(=O)O)cc1
Reply | 144 to 145 °C

Ask | Sample CCCc1ccc(-c2cnc(C#N)c(C#N)n2)cc1 — what was its melting point?
Reply | 87 to 87.9 °C

Ask | Using the record for OC1COC(c2ccccc2)OC1 (centres undefined) , report its melting point.
Reply | 83 to 84 °C

Ask | What value of melting point has been reported for the following molecule? C#CCc1ccc2c(C)c(C(=O)O)c(=O)oc2c1
Reply | 172 °C

Ask | Report melting point for CS(=O)(=O)Nc1ccc(C(N)=NO)cc1Oc1ccc(F)cc1F please.
Reply | 174 to 175 °C

Ask | For N#CC(C(=O)c1ccc(Cl)cc1)=C1CCC(C(=O)O)N1 (centres undefined) , what is its reported melting point?
Reply | 134 to 136 °C

Ask | Find the recorded melting point belonging to Cc1c(C)c2c(c(C)c1NC=O)CC(C)(CBr)O2 (centres undefined) and report it.
Reply | 157 to 158 °C

Ask | I'd like to know its melting point. The molecule in question is O=C(O)c1cccc(Cc2c(-c3ccc(OC(F)F)c(OC4CC4)c3)[nH]c3cn[nH]c(=O)c23)c1
Reply | 155 to 163 °C

Ask | melting point lookup needed for Cn1nc(OCc2ccccc2)cc1C=O , thanks.
Reply | 49.5 to 50.5 °C

Ask | GET /values?readout=melting point&item= Cc1cc(NC(=O)c2cc(F)cc(N(C3CN(C(c4ccc(Cl)cc4)c4ccc(Cl)cc4)C3)S(C)(=O)=O)c2)no1
Reply | 222 to 224 °C

Ask | Can you look up the measured melting point of CC(C)C(=O)Oc1c(-c2ccc(-c3ccccc3)cc2)nc2ccc(F)cc2c1C(=O)O for me?
Reply | 201 to 204 °C

Ask | Look up melting point for this molecule: Cc1noc(-c2cccc(Oc3ccc4c(c3)S(=O)(=O)NCCO4)c2)n1
Reply | 140 °C

Ask | Would you kindly share the measured melting point for Cc1ccc2c(=O)n3nccc3[nH]c2n1 ?
Reply | > 300 °C
